# TARGET SYSTEM: human cannabinoid receptor type 2 (Homo sapiens, UniProt P34972)
# Construct: expressed in transfected cells; membrane preparation
# Sequence (P34972 whole entry): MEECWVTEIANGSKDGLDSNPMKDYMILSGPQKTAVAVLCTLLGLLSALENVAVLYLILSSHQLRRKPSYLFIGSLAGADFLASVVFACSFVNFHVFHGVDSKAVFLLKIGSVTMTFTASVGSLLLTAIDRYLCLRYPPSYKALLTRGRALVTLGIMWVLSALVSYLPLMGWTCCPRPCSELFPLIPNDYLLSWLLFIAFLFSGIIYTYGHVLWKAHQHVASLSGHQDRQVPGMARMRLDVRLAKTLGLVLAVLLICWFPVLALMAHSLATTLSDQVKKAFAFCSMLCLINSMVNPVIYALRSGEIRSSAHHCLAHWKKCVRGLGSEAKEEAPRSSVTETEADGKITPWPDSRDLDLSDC
# MEASUREMENT DESCRIPTION: Human CB2 Radioligand Binding Assay
# MEASUREMENT PARAMETERS: competition with [3H] CP-55,940; membranes from stably transfected CHO CB2 cells; read-out: CB2 Ligand Binding Asssay EC50
VALUE TYPE: EC50

CCOC(=O)N1CCN(c2nc(-c3ccccc3Cl)nc3cc(C(=O)NC)ccc23)CC1 [Example 321]    > 1 µM

Entry under test: CN1CCN(c2nc(-c3ccccc3Cl)nc3ccc(OC(F)(F)F)cc23)CC1 [Example 180] . Its EC50 was < 1 µM

---

# TARGET SYSTEM: human cannabinoid receptor type 2 (Homo sapiens)
# Construct: expressed in transfected cells; membrane preparation
# MEASUREMENT DESCRIPTION: Human CB2 Radioligand Binding Assay
# MEASUREMENT PARAMETERS: competition with [3H] CP-55,940; membranes from stably transfected CHO CB2 cells; read-out: CB2 Ligand Binding Asssay EC50
# Experimental: 1. Human CB2 Radioligand Binding Assay This receptor binding filtration assay measures the receptor-ligand interactions of compounds by measuring ability to compete with a radiolabeled control ligand. […] Tritiated CP-55,940 (Perkin Elmer) was used at the Kd determined from prior saturation binding experiments conducted on each lot of membranes. […] Betaplate Scint Scintillation cocktail (25 ul, Perkin Elmer) was applied and plates were read using Microbeta Trilux (Wallac). […]
pEC50: −log10 of the molar value.
Reported pEC50 values for the following compounds.

Reference set (5 entries):
Clc1ccnc(N2CCN(c3nc(-c4ccccc4Cl)nc4ccccc34)CC2)n1    < 6.00
CC(=O)N1CCN(c2nc(-c3ccc(Cl)cc3)nc3ccc(Cl)cc23)CC1    < 6.00
CN1CCN(c2nc(-c3ccc(F)cc3F)nc3ccccc23)CC1    > 6.00
c1ccc(-c2nc(N3CCCC3)c3ccccc3n2)cc1    < 6.00
COC(=O)N1CCN(c2nc(-c3ccccc3Cl)nc3cccc(Cl)c23)CC1    > 6.00

Entry under test: `FC(F)(F)c1ccc(-c2nc(N3CCCC3)c3ccccc3n2)cc1` . Its pEC50 was > 6.00

Entry under test: `FC(F)(F)Oc1ccc(-c2nc(N3CCCC3)c3ccccc3n2)cc1` . Its pEC50 was > 6.00

Entry under test: `O=S(=O)(NCc1nc(N2CCCC2)c2ccc(Cl)cc2n1)c1cccc2ccccc12` . Its pEC50 was > 6.00

---

# TARGET SYSTEM: human cannabinoid receptor type 2 (Homo sapiens, UniProt P34972)
# Construct: expressed in transfected cells; membrane preparation
# MEASUREMENT DESCRIPTION: Human CB2 Radioligand Binding Assay
# MEASUREMENT PARAMETERS: competition with [3H] CP-55,940; membranes from stably transfected CHO CB2 cells; read-out: CB2 Ligand Binding Asssay EC50
VALUE TYPE: EC50

Entry under test: `CCOC(=O)N1CCN(c2nc(-c3ccccc3Cl)nc3cc(C(=O)N(CC)CC)ccc23)CC1` . Its EC50 was > 1000 nM

---

# TARGET SYSTEM: human cannabinoid receptor type 2 (Homo sapiens, UniProt P34972)
# Construct: expressed in transfected cells; membrane preparation
# MEASUREMENT DESCRIPTION: Human CB2 Radioligand Binding Assay
# MEASUREMENT PARAMETERS: competition with [3H] CP-55,940; membranes from stably transfected CHO CB2 cells; read-out: CB2 Ligand Binding Asssay EC50
pEC50: −log10 of the molar value.
Reported pEC50 values for the following compounds.

Reference set (6 entries):
O=C(NCc1nc(N2CCCC2)c2ccccc2n1)Nc1ccc(Cl)cc1Cl [Example 10]    < 6.00
Clc1ccc2c(N3CCCC3)nc(C3CCCCC3)nc2c1 [Example 160]    > 6.00
Fc1ccc(-c2nc(N3CCOCC3)c3ccccc3n2)c(F)c1 [Example 25]    < 6.00
CCOC(=O)N1CCN(c2nc(-c3ccccc3F)nc3ccccc23)CC1 [Example 279]    > 6.00
Clc1ccccc1-c1nc(N2CCCC2)c2cccc(Cl)c2n1 [Example 227]    > 6.00
CC(=O)N1CCN(c2nc(-c3ccc(F)cc3F)nc3ccccc23)CC1 [Example 24]    > 6.00

Entry under test: Cc1ccccc1Cc1nc(N2CCCC2)c2ccccc2n1 [Example 341] . Its pEC50 was > 6.00

Entry under test: CCOC(=O)N1CCN(c2nc(-c3ccc(Cl)cc3)nc3ccccc23)CC1 [Example 200] . Its pEC50 was < 6.00

Entry under test: CC(=O)N1CCN(c2nc(-c3ccc(Cl)cc3Cl)nc3ccccc23)CC1 [Example 202] . Its pEC50 was > 6.00

Entry under test: Clc1ccc(-c2nc(N3CCOCC3)c3ccccc3n2)cc1 [Example 126] . Its pEC50 was > 6.00

Entry under test: CN1CCN(c2nc(-c3ccccc3F)nc3ccccc23)CC1 [Example 152] . Its pEC50 was > 6.00

Entry under test: Fc1ccc(-c2nc(N3CCCCC3)c3ccccc3n2)c(F)c1 [Example 23] . Its pEC50 was < 6.00

Entry under test: O=S(=O)(NCc1nc(NC2CCCC2)c2ccccc2n1)c1cccc2ccccc12 [Example 305] . Its pEC50 was > 6.00

Entry under test: CCOC(=O)N1CCN(c2nc(-c3ccccc3Cl)nc3ccc(C(=O)N(CC)CC)cc23)CC1 [Example 314] . Its pEC50 was < 6.00

Entry under test: COC(CN(C)c1nc(-c2ccccc2Cl)nc2ccccc12)OC [Example 229] . Its pEC50 was < 6.00

Values were extracted from patent US20090209536A1.
